measurementTarget: CD16a158V (Homo sapiens, UniProt P08637, F176V)
Sequence (P08637 17-208 F176V): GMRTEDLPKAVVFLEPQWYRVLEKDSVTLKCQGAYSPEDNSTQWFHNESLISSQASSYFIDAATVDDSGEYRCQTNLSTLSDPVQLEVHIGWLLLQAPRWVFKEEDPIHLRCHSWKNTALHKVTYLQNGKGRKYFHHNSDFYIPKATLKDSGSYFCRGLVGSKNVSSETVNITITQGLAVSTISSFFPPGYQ
testSummary: Microscale Thermophoresis
conditionLabel: read-out: MST-CD16a158V KD
Below, each entry is listed alongside its reported Kd.

Examples with their reported Kd follow.
- compound: "COc1ccc(OC)c(N2CC(C(=O)Nc3ccc(Cn4cnc(CCOCCOCCOCCOCCOCCOCCOCCOCCNC(=O)CCCC[C@@H]5SC[C@@H]6NC(=O)N[C@@H]65)n4)cc3)CC2=O)c1 (some centres unmarked)"
  reportedMeasurement: "100 to 500 nM"
- compound: "O=C(CCCC[C@@H]1SC[C@@H]2NC(=O)N[C@@H]21)NCCOCCOCCOCCOCCOCCOCCOCCOCCn1cc(-c2ccc(NC(=O)C3CC(=O)N(c4ccccc4)C3)cc2)nn1 (some centres unmarked)"
  reportedMeasurement: "1 to 100 nM"
- compound: "COc1ccc(OC)c(N2CC(C(=O)Nc3ccc(CC4N=NC(COCCOCCOCCOCCOCCOCCOCCOCCNC(=O)CCCC[C@@H]5SC[C@@H]6NC(=O)N[C@@H]65)=N4)cc3)CC2=O)c1 (some centres unmarked)"
  reportedMeasurement: "500 to 1000 nM"
- compound: "CCOc1ccc(N2CC(C(=O)N3CCC(C(=O)NCCOCCOCCOCCOCCOCCOCCOCCOCCNC(=O)CCCC[C@@H]4SC[C@@H]5NC(=O)N[C@@H]54)CC3)CC2=O)cc1 (some centres unmarked)"
  reportedMeasurement: "500 to 1000 nM"

# context switch: different compound, same Kd
Query: I'd like to know its Kd. The compound in question is COc1ccc(N2CC(C(=O)Nc3ccc(-c4cn(CCOCCOCCOCCOCCOCCOCCOCCOCCNC(=O)CCCC[C@@H]5SC[C@@H]6NC(=O)N[C@@H]65)nn4)cc3)CC2=O)cc1 (some centres unmarked)
Response: 100 to 500 nM

---

Below, each entry is listed alongside its reported pKd.
measurementTarget: CD16a158F (Homo sapiens)
Sequence (P08637 17-208 limits assumed): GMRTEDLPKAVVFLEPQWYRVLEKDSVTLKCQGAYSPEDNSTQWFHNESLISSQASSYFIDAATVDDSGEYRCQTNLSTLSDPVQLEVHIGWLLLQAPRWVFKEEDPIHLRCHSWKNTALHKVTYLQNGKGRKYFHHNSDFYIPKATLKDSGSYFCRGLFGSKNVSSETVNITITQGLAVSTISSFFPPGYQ
pKd: −log10 of the molar value.

- molecule: "O=C(CCCC[C@@H]1SC[C@@H]2NC(=O)N[C@@H]21)NCCOCCOCCOCCOCCOCCOCCOCCOCCn1cc(-c2ccc(C(=O)N3CCC4(CC3)NC(=O)N(Cc3ccccc3)C4=O)cc2)nn1"
  endpoint: "pKd"
  reportedMeasurement: "6.30 to 7.00"
- molecule: "O=C(CCCC[C@@H]1SC[C@@H]2NC(=O)N[C@@H]21)NCCOCCOCCOCCOCCOCCOCCOCCOCCn1cc(-c2ccc(NC(=O)C3CC(=O)N(c4cc(F)ccc4F)C3)cc2)nn1 (some centres unmarked)"
  endpoint: "pKd"
  reportedMeasurement: "6.00 to 6.30"
- molecule: "COc1ccc(OC)c(N2CC(C(=O)Nc3ccc(-c4cn(CCCC(=O)O)nn4)cc3)CC2=O)c1 (centres unmarked)"
  endpoint: "pKd"
  reportedMeasurement: "6.30 to 7.00"
- molecule: "O=C(CCCC[C@@H]1SC[C@@H]2NC(=O)N[C@@H]21)NCCOCCOCCOCCOCCOCCOCCOCCOCCn1cc(-c2cccc(NC(=O)N3CCC4(CC3)NC(=O)N(c3ccccc3)C4=O)c2)nn1"
  endpoint: "pKd"
  reportedMeasurement: "6.30 to 7.00"

# context switch: different molecule, same pKd
Query: What value of pKd on CD16a158F (Homo sapiens) does O=C(CCCC[C@@H]1SC[C@@H]2NC(=O)N[C@@H]21)NCCOCCOCCOCCOCCOCCOCCOCCOCCC(=O)N1CCC(N2CC(=O)N(c3ccccc3)C2=O)CC1 have?
Response: < 6.00
